conditions: in water, 318.2 K
measured_endpoint: solubility (mole fraction)

C=C(C)[C@@H]1CC[C@]2(CO)CC[C@]3(C)[C@H](CC[C@@H]4[C@@]5(C)CC[C@H](O)C(C)(C)[C@@H]5CC[C@]43C)[C@@H]12 | 1.8e-05

----------
settings: in n-dodecane, 323.2 K
measured_endpoint: solubility (mole fraction)

C=C(C)[C@@H]1CC[C@]2(CO)CC[C@]3(C)[C@H](CC[C@@H]4[C@@]5(C)CC[C@H](O)C(C)(C)[C@@H]5CC[C@]43C)[C@@H]12 | 3.5e-05

----------
details: in n-nonanol, 308.2 K
measured_endpoint: solubility (mole fraction)

C=C(C)[C@@H]1CC[C@]2(CO)CC[C@]3(C)[C@H](CC[C@@H]4[C@@]5(C)CC[C@H](O)C(C)(C)[C@@H]5CC[C@]43C)[C@@H]12 | 0.00292
